Answer each item with its documented pKi.
Target: α-synuclein fibrils (Homo sapiens, UniProt P37840)
Details: [125I]SIL23 competition, 95% confidence intervals in parentheses
# pKi is unitless: minus log10 of the molar concentration; print number only

I would be grateful if you could share the reported pKi for "CN(C)c1ncc(/C=C/c2nc3ccc(OCCF)cc3o2)s1" .
7.40

I would be grateful if you could share the reported pKi for "CNc1ccc(-c2nc3ccc(O)cc3s2)cc1" .
6.94

I would be grateful if you could share the reported pKi for "O=C(O)c1cc(/N=N/c2ccc(-c3ccc(/N=N/c4ccc(O)c(C(=O)O)c4)cc3)cc2)ccc1O" .
6.36

---

Answer each item with its documented Ki.
Target: Human PD brain homogenate (Homo sapiens, UniProt P37840)
Answer shape: numeric part, then the unit.

Notebook entry, Human PD brain homogenate (Homo sapiens, UniProt P37840) assay: Ki of "CNc1ccc(-c2nc3ccc(O)cc3s2)cc1" = ?
99.2 nM

Notebook entry, Human PD brain homogenate (Homo sapiens, UniProt P37840) assay: Ki of "CN(C)c1ncc(/C=C/c2nc3ccc(OCCF)cc3o2)s1" = ?
138 nM

Notebook entry, Human PD brain homogenate (Homo sapiens, UniProt P37840) assay: Ki of "O=C(O)c1cc(/N=N/c2ccc(-c3ccc(/N=N/c4ccc(O)c(C(=O)O)c4)cc3)cc2)ccc1O" = ?
367 nM

---

Target: tau fibrils (Homo sapiens, UniProt P10636)
Sequence (P10636 560-692): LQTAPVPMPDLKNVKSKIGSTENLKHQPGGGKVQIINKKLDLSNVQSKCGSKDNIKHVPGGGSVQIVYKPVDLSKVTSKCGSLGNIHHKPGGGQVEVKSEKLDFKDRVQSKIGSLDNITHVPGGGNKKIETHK
Experiment: [125I]SIL23 saturation binding, recombinant tau fibrils
Settings: tau fibrils
Value Type: Kd (nM)
Give the quantity in nM, number only.

I would be grateful if you could share the reported Kd for O=[N+]([O-])c1ccc2c(c1)Sc1cc(OC/C=C/[125I])ccc1N2 [[^125I]SIL23] .
230

---

Molecular target: Aβ1-42 fibrils (Homo sapiens, UniProt P05067)
Construct: Synthetic Aβ1-42 peptide (1 mg) (Bachem, Torrance, Calif.)
Sequence (P05067 672-713 limits assumed): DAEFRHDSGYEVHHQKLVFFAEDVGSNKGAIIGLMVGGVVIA
Assay: [125I]SIL23 saturation binding, synthetic Aβ1-42 fibrils
Settings: Aβ1-42 fibrils
Value Type: Kd (nM)
Give the quantity in nM, number only.

I would be grateful if you could share the reported Kd for O=[N+]([O-])c1ccc2c(c1)Sc1cc(OC/C=C/[125I])ccc1N2 [[^125I]SIL23] .
635
